Molecular target: ECB deacylase (Actinoplanes utahensis)
Construct: ECB deacylase is an 81-kilodalton (KD) heterodimer comprising 63-KD and 18 KD subunits; made in house; host or cells: Actinoplanes utahensis (native producer, not recombinant); enzyme solubilized from whole cells with salt and purified
Test: ECB deacylase assay (formation of ECB nucleus by HPLC)
Type: biochemical
Conditions: substrate specificity, purified deacylase
*1 amine or outer side, *2 acyl side, *3 side chain or, on linkers, in order; H or OH if unused. Where a SMILES comes first, the peptide text is derived from it. Bridges are numbered along the chain shown (N, C = ends). [ ]: non-standard residue; d: D form. The star is where a group is joined. ξ: configuration not given here. ξOrn(4,5-diOH) = O=C(C(CC(O)C(O)N[*:3])N[*:1])[*:2]; ξhTyr(βξ-OH,γξ-OH) = NC(C(=O)O)C(O)C(O)c1ccc(O)cc1; ξPro(3ξ-OH,4ξ-Me) = CC1CNC(C(=O)O)C1O; X6 = O=C(Cc1ccc(N[*:1])cc1)[*:2]; X3 = CCCCCCCCOc1ccc(CC(=O)*)cc1; X5 = CCCCCCCOc1ccc(CCC(=O)*)cc1; Hyp = O=C(O)[CH]1C[CH](O)CN1; Lauroyl = CCCCCCCCCCCC(=O)*
endpoint-label: percent activity relative to the deacylase activity of 100% for ECB itself (%)
Write the value in % as a bare number.

Recall and state the measured percent activity relative to the deacylase activity of 100% for ECB itself for CCCCCCCCOc1ccc(CC(=O)NC2CC(O)C(O)NC(=O)C3C(O)C(C)CN3C(=O)C(C(C)O)NC(=O)C(C(O)C(O)c3ccc(O)cc3)NC(=O)C3CC(O)CN3C(=O)C(C(C)O)NC2=O)cc1 (stereo not drawn) (X3-[ξOrn(4,5-diOH)]T[Hyp][ξhTyr(βξ-OH,γξ-OH)]T[ξPro(3ξ-OH,4ξ-Me)]; lactam 1-C; configuration not given here) . 30

Recall and state the measured percent activity relative to the deacylase activity of 100% for ECB itself for CCCCCCCCCCCC(=O)Nc1ccc(CC(=O)NC2CC(O)C(O)NC(=O)C3C(O)C(C)CN3C(=O)C(C(C)O)NC(=O)C(C(O)C(O)c3ccc(O)cc3)NC(=O)C3CC(O)CN3C(=O)C(C(C)O)NC2=O)cc1 (stereo not drawn) (Lauroyl-[X6][ξOrn(4,5-diOH)]T[Hyp][ξhTyr(βξ-OH,γξ-OH)]T[ξPro(3ξ-OH,4ξ-Me)]; lactam 2-C; configuration not given here) . 5

Recall and state the measured percent activity relative to the deacylase activity of 100% for ECB itself for CCCCCCCOc1ccc(CCC(=O)NC2CC(O)C(O)NC(=O)C3C(O)C(C)CN3C(=O)C(C(C)O)NC(=O)C(C(O)C(O)c3ccc(O)cc3)NC(=O)C3CC(O)CN3C(=O)C(C(C)O)NC2=O)cc1 (stereo not drawn) (X5-[ξOrn(4,5-diOH)]T[Hyp][ξhTyr(βξ-OH,γξ-OH)]T[ξPro(3ξ-OH,4ξ-Me)]; lactam 1-C; configuration not given here) . 30

---

Give percent activity relative to the deacylase activity of 100% for ECB itself for every item shown.
Biological target: ECB deacylase (Actinoplanes utahensis, UniProt P29958)
Construct: ECB deacylase is an 81-kilodalton (KD) heterodimer comprising 63-KD and 18 KD subunits; made in house; host or cells: Actinoplanes utahensis (native producer, not recombinant); enzyme solubilized from whole cells with salt and purified
Sequence (P29958 230-786 limits assumed): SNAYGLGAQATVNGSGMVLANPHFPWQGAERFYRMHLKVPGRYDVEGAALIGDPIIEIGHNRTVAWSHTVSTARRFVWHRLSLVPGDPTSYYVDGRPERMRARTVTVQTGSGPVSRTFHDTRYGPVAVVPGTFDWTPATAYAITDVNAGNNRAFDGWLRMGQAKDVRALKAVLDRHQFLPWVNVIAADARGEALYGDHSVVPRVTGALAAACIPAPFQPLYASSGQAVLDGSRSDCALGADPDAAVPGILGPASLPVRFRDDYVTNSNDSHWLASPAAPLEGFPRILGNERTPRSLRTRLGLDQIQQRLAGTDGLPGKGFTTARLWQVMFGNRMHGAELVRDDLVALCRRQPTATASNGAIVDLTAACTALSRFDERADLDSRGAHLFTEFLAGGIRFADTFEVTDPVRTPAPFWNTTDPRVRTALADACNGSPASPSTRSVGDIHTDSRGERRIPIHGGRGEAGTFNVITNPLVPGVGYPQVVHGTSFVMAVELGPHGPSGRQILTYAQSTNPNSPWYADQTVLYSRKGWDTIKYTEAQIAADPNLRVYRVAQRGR
Sequence (P29958 35-214 limits assumed): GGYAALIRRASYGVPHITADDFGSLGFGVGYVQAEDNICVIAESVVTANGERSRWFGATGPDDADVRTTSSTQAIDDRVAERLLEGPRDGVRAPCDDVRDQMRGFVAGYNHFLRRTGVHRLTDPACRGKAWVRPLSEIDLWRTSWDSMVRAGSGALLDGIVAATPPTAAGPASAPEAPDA
Assay: ECB deacylase assay (formation of ECB nucleus by HPLC)
Format: biochemical
Details: substrate specificity, purified deacylase
*1 amine or outer side, *2 acyl side, *3 side chain or, on linkers, in order; H or OH if unused. Where a SMILES comes first, the peptide text is derived from it. Bridges are numbered along the chain shown (N, C = ends). [ ]: non-standard residue; d: D form. The star is where a group is joined. ξ: configuration not given here. ξOrn(4,5-diOH) = O=C(C(CC(O)C(O)N[*:3])N[*:1])[*:2]; ξhTyr(βξ-OH,γξ-OH) = NC(C(=O)O)C(O)C(O)c1ccc(O)cc1; ξPro(3ξ-OH,4ξ-Me) = CC1CNC(C(=O)O)C1O; X2 = O=C(C=Cc1ccc(N[*:1])cc1)[*:2]; X1 = CCCCCC=CCC=CCCCCCCCC(=O)*; X4 = CCCCCOc1ccc(CCC(=O)*)cc1; Hyp = O=C(O)[CH]1C[CH](O)CN1; Lauroyl = CCCCCCCCCCCC(=O)*
Write the value in % as a bare number.

Recall and state the measured percent activity relative to the deacylase activity of 100% for ECB itself for CCCCCC=CCC=CCCCCCCCC(=O)NC1CC(O)C(O)NC(=O)C2C(O)C(C)CN2C(=O)C(C(C)O)NC(=O)C(C(O)C(O)c2ccc(O)cc2)NC(=O)C2CC(O)CN2C(=O)C(C(C)O)NC1=O (stereo not drawn) [echinocandin B] (X1-[ξOrn(4,5-diOH)]T[Hyp][ξhTyr(βξ-OH,γξ-OH)]T[ξPro(3ξ-OH,4ξ-Me)]; lactam 1-C; configuration not given here) . 100

Recall and state the measured percent activity relative to the deacylase activity of 100% for ECB itself for CCCCCOc1ccc(CCC(=O)NC2CC(O)C(O)NC(=O)C3C(O)C(C)CN3C(=O)C(C(C)O)NC(=O)C(C(O)C(O)c3ccc(O)cc3)NC(=O)C3CC(O)CN3C(=O)C(C(C)O)NC2=O)cc1 (stereo not drawn) (X4-[ξOrn(4,5-diOH)]T[Hyp][ξhTyr(βξ-OH,γξ-OH)]T[ξPro(3ξ-OH,4ξ-Me)]; lactam 1-C; configuration not given here) . 12

Recall and state the measured percent activity relative to the deacylase activity of 100% for ECB itself for CCCCCCCCCCCC(=O)Nc1ccc(C=CC(=O)NC2CC(O)C(O)NC(=O)C3C(O)C(C)CN3C(=O)C(C(C)O)NC(=O)C(C(O)C(O)c3ccc(O)cc3)NC(=O)C3CC(O)CN3C(=O)C(C(C)O)NC2=O)cc1 (stereo not drawn) (Lauroyl-[X2][ξOrn(4,5-diOH)]T[Hyp][ξhTyr(βξ-OH,γξ-OH)]T[ξPro(3ξ-OH,4ξ-Me)]; lactam 2-C; configuration not given here) . 15
